Hello, the source for this data is patent US20210277110A1, in case you need it.

Would you mind telling me the reported percentage ligand not blocked at 10 µg/ml of each entry?
Tested target: T1, Extracellular domain of human PD1 (huPD1-ECD) (human, UniProt Q15116 25-169, biotinylated in the ligand inhibition assay (sites not given))
T1 construct: Expressed with a hexahistidine tag or as Fc fusion; also called biotinylated PD-1
T1 sequence (Q15116 25-169 limits assumed): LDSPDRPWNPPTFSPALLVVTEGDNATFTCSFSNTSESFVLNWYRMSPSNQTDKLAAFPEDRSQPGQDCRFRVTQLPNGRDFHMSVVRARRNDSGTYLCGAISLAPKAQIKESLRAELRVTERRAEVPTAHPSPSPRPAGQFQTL
Protocol: MSD ligand inhibition, competitor coated cynoPDL1-ECD
Kindly write the number and append the unit.

Lab book: percentage ligand not blocked at 10 µg/ml of PD1B162 (antibody, human IgG2, kappa, V domains shown, IgG2sigma/kappa; VH 42, VL 52; also called PD1H131/PD1L67) VH: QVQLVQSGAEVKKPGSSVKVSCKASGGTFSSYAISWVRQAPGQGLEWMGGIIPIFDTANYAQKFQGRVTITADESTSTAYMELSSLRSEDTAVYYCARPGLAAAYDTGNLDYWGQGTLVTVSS VL: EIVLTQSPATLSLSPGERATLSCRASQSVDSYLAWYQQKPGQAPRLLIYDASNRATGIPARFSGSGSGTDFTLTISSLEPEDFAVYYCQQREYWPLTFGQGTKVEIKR noted as 6%

Lab book: percentage ligand not blocked at 10 µg/ml of PD1B164 (antibody, human IgG2, kappa, V domains shown, IgG2sigma/kappa; VH 42, VL 53; also called PD1H131/PD1L71) VH: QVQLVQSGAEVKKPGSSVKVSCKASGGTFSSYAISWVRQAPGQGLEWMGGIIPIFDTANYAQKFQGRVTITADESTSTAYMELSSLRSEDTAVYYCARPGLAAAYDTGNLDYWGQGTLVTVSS VL: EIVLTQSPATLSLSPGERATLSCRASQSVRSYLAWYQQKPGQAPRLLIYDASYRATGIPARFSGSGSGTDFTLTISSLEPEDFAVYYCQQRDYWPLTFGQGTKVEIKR noted as 3%

Lab book: percentage ligand not blocked at 10 µg/ml of PD1B183 (antibody, human IgG2, kappa, V domains shown, IgG2sigma/kappa; VH 43, VL 54; also called PD1H3/PD1L109) VH: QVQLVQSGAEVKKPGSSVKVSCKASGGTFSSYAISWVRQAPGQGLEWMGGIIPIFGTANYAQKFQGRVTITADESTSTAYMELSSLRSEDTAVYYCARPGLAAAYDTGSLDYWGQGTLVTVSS VL: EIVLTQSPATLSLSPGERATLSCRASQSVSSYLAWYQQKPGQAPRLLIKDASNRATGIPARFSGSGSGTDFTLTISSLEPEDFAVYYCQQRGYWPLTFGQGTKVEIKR noted as 5%
